The reported measurements were obtained from patent US20220220215A1.

- assaySystem: T1, human CD137-Fc recombinant protein (Acro Biosystems 41B-H5258) (human, UniProt Q07011 24-186)
- T1 construct: Bought protein; The Octet paragraph gives no catalogue number for its human CD137-Fc; also called hCD137-Fc; CD137-Fc tagged protein
- testDescription: BLI (Octet RED384), CD137-Fc on Protein G sensor, 1:1 model
kon: recorded values

Use these answered entries as a reference point.
Supply recorded kon for 003BB172-E01-2 (VHH, Human VH single domain antibody, monovalent) VHH: EVQLVESGGGLVQPGGSLRLSCAASGFTFSNYGMHWVRQAPGKRLEWVAVISNDGNTKTYADSVKGRFTISRDNSKNTLYLQMTSLRTEDTAVYYCAQDETTTVTASYYFDYWGQGTLVTVSS here.
73200 M⁻¹ s⁻¹

Supply recorded kon for 003BB172-E01-1 (VHH, Human VH single domain antibody, monovalent) VHH: EVQLVESGGGLVQPGGSLRLSCAASGFTFSNYGMHWVRQAPGKGLEWVAVISNDGNTKTYADSVKGRFTISRDNSKNMLYLQMTSLRTEDTAVYYCAQDETTTVTASYYFDYWGQGTLVTVSS here.
120000 M⁻¹ s⁻¹

Supply recorded kon for 003BB172-E01-4 (VHH, Human VH single domain antibody, monovalent) VHH: EVQLVESGGGLVQPGGSLRLSCAASGFTFSNYGMHWVRQAPGKGLEWVAVISNDGNTKTYADSVKGRFTISRDNSKNTLYLQMTSLRTEDTAVYYCAQDETTTVTASYYFDYWGQGTLVTVSS here.
71600 M⁻¹ s⁻¹

More entries:
Supply recorded kon for 003BB172-E01-3 (VHH, Human VH single domain antibody, monovalent) VHH: EVQLVESGGGLVQPGGSLRLSCAASGFTFSNYGMHWVRQAPGKRLEWVAVISNDGNTKTYADSVKGRFTISRDNSKNMLYLQMNSLRTEDTAVYYCAQDETTTVTASYYFDYWGQGTLVTVSS here.
66000 M⁻¹ s⁻¹
